The measured values listed here are drawn from patent US20230117034A1.

Hi there, I'd appreciate the recorded (IC50 CDK12 high ATP) to (Degradation DC50 CDK12) ratio for every entry that follows.
target-or-system: CDK12 (nuclear staining in CAL-120 cells) (Homo sapiens)
Construct: endogenous in cells; host or cells: CAL-120 human breast cancer cells (DSMZ ACC 459)
Sequence (Q9NYV4 whole entry): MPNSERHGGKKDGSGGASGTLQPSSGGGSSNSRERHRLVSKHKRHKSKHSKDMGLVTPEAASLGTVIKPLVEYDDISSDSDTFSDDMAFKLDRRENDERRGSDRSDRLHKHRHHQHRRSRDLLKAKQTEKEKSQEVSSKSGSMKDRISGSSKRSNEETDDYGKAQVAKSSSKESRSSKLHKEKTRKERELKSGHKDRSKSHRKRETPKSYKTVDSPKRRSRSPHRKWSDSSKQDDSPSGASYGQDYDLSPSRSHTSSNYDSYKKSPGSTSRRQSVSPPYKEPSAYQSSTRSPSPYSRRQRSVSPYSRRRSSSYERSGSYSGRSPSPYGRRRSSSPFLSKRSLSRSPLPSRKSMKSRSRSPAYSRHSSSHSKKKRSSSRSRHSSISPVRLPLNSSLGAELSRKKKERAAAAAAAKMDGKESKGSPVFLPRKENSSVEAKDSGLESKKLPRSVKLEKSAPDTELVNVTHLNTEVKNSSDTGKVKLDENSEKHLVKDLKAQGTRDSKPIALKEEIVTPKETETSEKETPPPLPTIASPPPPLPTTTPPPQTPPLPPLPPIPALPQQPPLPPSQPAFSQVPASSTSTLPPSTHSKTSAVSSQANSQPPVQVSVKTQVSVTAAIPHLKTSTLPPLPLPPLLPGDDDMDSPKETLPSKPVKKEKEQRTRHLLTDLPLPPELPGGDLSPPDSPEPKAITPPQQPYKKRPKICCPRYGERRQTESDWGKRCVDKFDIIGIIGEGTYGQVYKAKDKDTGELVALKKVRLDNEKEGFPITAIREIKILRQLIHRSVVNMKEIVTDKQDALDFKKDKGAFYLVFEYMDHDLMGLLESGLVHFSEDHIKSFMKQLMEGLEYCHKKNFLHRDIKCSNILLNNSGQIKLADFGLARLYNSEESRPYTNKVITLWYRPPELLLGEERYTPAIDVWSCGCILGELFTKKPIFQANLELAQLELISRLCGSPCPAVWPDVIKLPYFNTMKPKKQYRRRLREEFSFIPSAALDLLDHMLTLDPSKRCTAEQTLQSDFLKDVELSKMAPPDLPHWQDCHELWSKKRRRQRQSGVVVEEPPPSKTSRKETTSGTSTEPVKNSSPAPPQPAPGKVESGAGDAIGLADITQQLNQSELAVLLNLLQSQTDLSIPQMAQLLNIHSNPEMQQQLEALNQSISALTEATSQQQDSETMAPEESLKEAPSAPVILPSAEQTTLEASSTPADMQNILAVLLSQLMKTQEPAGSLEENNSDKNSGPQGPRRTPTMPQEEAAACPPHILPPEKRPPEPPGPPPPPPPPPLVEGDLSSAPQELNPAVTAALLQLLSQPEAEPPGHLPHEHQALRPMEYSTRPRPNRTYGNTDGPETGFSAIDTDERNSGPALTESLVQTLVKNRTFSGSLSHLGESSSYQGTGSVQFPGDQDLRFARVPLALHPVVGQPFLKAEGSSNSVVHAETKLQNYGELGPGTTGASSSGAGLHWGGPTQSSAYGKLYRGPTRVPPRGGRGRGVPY
Sequence (O75909 whole entry partner): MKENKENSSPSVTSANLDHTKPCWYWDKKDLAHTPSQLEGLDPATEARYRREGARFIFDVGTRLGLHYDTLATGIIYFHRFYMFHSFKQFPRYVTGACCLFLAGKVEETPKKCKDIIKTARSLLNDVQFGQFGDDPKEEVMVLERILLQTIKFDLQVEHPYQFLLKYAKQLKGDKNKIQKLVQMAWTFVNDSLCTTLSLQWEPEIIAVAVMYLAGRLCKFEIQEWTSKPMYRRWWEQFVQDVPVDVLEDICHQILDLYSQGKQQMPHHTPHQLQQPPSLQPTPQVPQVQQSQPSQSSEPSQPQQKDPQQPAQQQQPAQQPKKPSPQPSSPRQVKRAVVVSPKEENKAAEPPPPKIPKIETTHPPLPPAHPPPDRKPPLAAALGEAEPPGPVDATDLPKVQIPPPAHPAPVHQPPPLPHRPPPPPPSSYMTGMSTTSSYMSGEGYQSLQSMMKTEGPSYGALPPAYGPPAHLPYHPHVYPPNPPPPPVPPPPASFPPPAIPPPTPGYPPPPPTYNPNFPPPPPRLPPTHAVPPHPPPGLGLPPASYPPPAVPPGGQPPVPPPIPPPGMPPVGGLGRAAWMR
assay-summary: CDK12 nuclear protein level: immunofluorescence/high content analysis (CAL-120)
Format: cell-based
test-settings: ratio of IC50 CDK12 high ATP kinase assay to DC50 CDK12 degradation (IF, CAL-120)

Please go through the list and note (IC50 CDK12 high ATP) to (Degradation DC50 CDK12) ratio for each compound.
1. Brc1cnn2c(NCc3nc4ccccc4[nH]3)nc(NCCN3CCCC3)nc12
2. CN1CCN(c2nc(NCc3nc4cc(F)ccc4[nH]3)n3ncc(Br)c3n2)CC1
3. CC[C@H](COC)Nc1nc(NCc2nc3ccccc3[nH]2)n2ncc(Br)c2n1
4. COCCNc1nc(NCc2nc3ccccc3[nH]2)n2ncc(Br)c2n1

1: >192; 2: >17850; 3: >970; 4: >303

###

target-or-system: CDK12 (nuclear staining in CAL-120 cells) (Homo sapiens)
Construct: endogenous in cells; host or cells: CAL-120 human breast cancer cells (DSMZ ACC 459)
assay-summary: CDK12 nuclear protein level: immunofluorescence/high content analysis (CAL-120)
Assay type: cell-based
test-settings: ratio of IC50 CDK12 high ATP kinase assay to DC50 CDK12 degradation (IF, CAL-120)
Answer FALSE if (IC50 CDK12 high ATP) to (Degradation DC50 CDK12) ratio is under 100, and TRUE if it is 100 or more.

| molecule | target-or-system | group |
| --- | --- | --- |
| Brc1cnn2c(NCc3nc4ccccc4[nH]3)nc(OCCN3CCCC3)nc12 | CDK12 (nuclear staining in CAL-120 cells) (Homo sapiens) | TRUE |

Dear colleague, could you confirm whether FC(F)n1cc(-c2cnn3c(NCc4nc5cc(Cl)c(Cl)cc5[nH]4)nc(N4CCOCC4)nc23)cn1 has (IC50 CDK12 high ATP) to (Degradation DC50 CDK12) ratio at or above 100?
TRUE

Dear colleague, could you confirm whether c1cncc(-c2cnn3c(NCc4nc5ccccc5[nH]4)nc(N4CCOCC4)nc23)c1 has (IC50 CDK12 high ATP) to (Degradation DC50 CDK12) ratio at or above 100?
TRUE

Dear colleague, could you confirm whether CN1CCN(c2nc(NCc3nc4ccccc4[nH]3)n3ncc(C4CC4(F)F)c3n2)CC1 (stereo not drawn) has (IC50 CDK12 high ATP) to (Degradation DC50 CDK12) ratio at or above 100?
TRUE

###

target-or-system: CDK12/CycK (Homo sapiens)
Sequence (Q9NYV4 with tags, fused parts or gaps): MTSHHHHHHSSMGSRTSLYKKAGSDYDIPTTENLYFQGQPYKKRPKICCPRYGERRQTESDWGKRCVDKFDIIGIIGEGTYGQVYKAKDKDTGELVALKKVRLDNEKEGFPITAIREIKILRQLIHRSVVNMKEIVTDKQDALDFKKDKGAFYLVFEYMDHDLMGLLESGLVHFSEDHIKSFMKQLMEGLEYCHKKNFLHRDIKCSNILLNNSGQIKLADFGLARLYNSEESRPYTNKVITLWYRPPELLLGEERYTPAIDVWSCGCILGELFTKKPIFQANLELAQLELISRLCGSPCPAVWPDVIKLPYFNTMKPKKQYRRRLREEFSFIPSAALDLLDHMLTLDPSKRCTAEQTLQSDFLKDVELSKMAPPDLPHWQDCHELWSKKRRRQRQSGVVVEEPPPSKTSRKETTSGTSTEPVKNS
Sequence (O75909 1-300 partner limits assumed): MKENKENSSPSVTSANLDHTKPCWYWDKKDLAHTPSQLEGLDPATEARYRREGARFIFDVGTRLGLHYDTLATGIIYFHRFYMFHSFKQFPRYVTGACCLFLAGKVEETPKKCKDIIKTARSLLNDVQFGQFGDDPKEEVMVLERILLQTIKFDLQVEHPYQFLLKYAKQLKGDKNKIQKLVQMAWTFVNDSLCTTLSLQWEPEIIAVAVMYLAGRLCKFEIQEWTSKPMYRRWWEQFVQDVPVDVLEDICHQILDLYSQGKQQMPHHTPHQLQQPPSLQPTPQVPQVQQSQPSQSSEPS
assay-summary: CDK12/CycK high ATP kinase assay (TR-FRET, 2 mM ATP)
Type: biochemical
test-settings: 2 mM ATP (high ATP); median; read-out: CDK12/CyclinK, 2 mM ATP (high ATP), IC50-[mol/l] (median)
Experimental: In the context of the present invention, the term “IC50 CDK12 hATP” refers to the IC50 values obtained according to the assay described in this section (2.2) herein below, i.e. the IC50 values for the inhibition of CDK12 at high (2 mM) ATP. […]
readout-label: IC50 (µM)
Answers are plain numbers, in µM.

| molecule | target-or-system | IC50 [µM] |
| --- | --- | --- |
| Fc1ccc2[nH]c(CNc3nc(N4CCOCC4)nc4c(CC(F)(F)F)cnn34)nc2c1 | CDK12/CycK (Homo sapiens) | 6.4 |
| Cc1ccc2[nH]c(CNc3nc(N4C[C@@H](C)N[C@@H](C)C4)nc4c(Br)cnn34)nc2c1 | CDK12/CycK (Homo sapiens) | 6.8 |
| CN(CC(C)(C)O)c1nc(NCc2nc3cc(F)c(F)cc3[nH]2)n2ncc(Br)c2n1 | CDK12/CycK (Homo sapiens) | 2.18 |
| COc1cccc2[nH]c(CNc3nc(N4CCOCC4)nc4c(C5CC5)cnn34)nc12 | CDK12/CycK (Homo sapiens) | 1.05 |

Please go through the list and note IC50 for each molecule.
1. CC(C)c1cnn2c(NCc3nc4ccccc4[nH]3)nc(N(C)CC(C)(C)O)nc12
2. N=S1(=O)CCN(c2nc(NCc3nc4ccccc4[nH]3)n3ncc(Br)c3n2)CC1
3. Clc1ccc(-c2nnc(CNc3nc(N4CCOCC4)nc4c(Br)cnn34)[nH]2)cc1
4. FC(F)(F)c1ccc2[nH]c(CNc3nc(N4CC5CCC(C4)N5)nc4c(C5CC5)cnn34)nc2c1

1. 5.17
2. 12.6
3. 2.2
4. 2.35

Please go through the list and note IC50 for each molecule.
1. COc1cccc2[nH]c(CNc3nc(N4C[C@@H]5CCCN[C@@H]5C4)nc4c(C5CC5)cnn34)nc12
2. CC(C)c1cnn2c(NCc3ncc(-c4ccccc4)[nH]3)nc(N3CCOCC3)nc12
3. COC(=O)C1CCN(c2nc(NCc3nnc(-c4ccccc4)[nH]3)n3ncc(Br)c3n2)CC1

8.09
2.95
10.1

Please go through the list and note IC50 for each molecule.
1. Fc1cccc2[nH]c(CNc3nc(N4CCOCC4)nc4c(C5CC5)cnn34)nc12
2. Brc1cnn2c(NCc3nc4ccccc4[nH]3)nc(N3C[C@H]4CC[C@@H]3CN4)nc12 (single isomer, unassigned) [Example 335]
3. Fc1ccc2[nH]c(CNc3nc(N4CCOCC4)nc4c(C5CC5)cnn34)nc2c1

0.581
6.65
1.91

Please go through the list and note IC50 for each molecule.
1. C[C@@H]1CN(c2nc(NCc3nc4c(F)c(F)ccc4[nH]3)n3ncc(C4CC4)c3n2)C[C@H](C)N1
2. COc1cccc2[nH]c(CNc3nc(N4C[C@H]5C[C@@H]4CO5)nc4c(C5CC5)cnn34)nc12

1: 3.04; 2: 7.48
